target: KCNQ 2/3 channels (HEK293 cells stably expressing human KCNQ2 and KCNQ3 subunits) (Homo sapiens, UniProt O43525+O43526); construct: expressed in transfected cells; host or cells: HEK293; test: KCNQ2/3 channel activation, thallium flux FLIPR assay with BTC-AM dye; assay type: cell-based; conditions: HEK293 cells expressing human KCNQ2 and KCNQ3; thallium flux, FLIPR
Below, each of the molecules is paired with its reported EC50 value.

molecule="O=C(Cc1ccc(Cl)cc1)Nn1nc(-c2ccc(Br)cc2)c2ccccc2c1=O [Example 3]" value="0.1 to 0.5 µM"
molecule="COc1ccc(-c2nn(NC(=O)CC3CCC(C)CC3)c(=O)c3ccccc23)cc1 (stereo not shown) [Example 152]" value="0.1 to 0.5 µM"
molecule="CC(C)(CC(=O)Nn1nc(-c2ccc(Br)cc2)c2ccccc2c1=O)c1ccccc1 [Example 85]" value="0.1 to 0.5 µM"

## Task Which EC50 is listed for O=C(Cc1cc(F)cc(F)c1)Nn1nc(C2CCC2)c2ccccc2c1=O [Example 69] ?
## Result < 0.1 µM
